- System tested: PKC-β-I (Homo sapiens, UniProt P05771)
- Construct: purchased Invitrogen
- Sequence (P05771 whole entry): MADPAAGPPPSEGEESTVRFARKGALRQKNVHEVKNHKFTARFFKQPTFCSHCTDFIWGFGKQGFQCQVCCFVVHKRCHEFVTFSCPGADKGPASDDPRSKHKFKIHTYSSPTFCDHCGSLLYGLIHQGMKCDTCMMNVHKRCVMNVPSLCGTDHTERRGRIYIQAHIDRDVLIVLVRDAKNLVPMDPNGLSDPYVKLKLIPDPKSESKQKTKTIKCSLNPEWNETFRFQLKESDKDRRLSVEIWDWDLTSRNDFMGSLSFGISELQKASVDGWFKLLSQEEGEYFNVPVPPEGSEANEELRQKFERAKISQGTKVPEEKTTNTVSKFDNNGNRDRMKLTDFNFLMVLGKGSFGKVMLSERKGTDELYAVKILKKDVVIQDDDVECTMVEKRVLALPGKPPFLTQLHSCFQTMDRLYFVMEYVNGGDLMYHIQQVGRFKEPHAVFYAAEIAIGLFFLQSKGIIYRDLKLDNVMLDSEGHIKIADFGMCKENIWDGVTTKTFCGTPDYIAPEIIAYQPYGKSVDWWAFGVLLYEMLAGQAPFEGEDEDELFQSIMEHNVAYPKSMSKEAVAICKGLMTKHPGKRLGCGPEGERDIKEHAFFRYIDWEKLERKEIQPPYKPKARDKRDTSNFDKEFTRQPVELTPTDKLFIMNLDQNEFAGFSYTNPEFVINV
- Experiment summary: Cell-free PKC competition binding assay against 3H-PDBu
- Condition info: competition against radiolabeled PDBu; Fig. 7A and text; read-out: Ki PKC-β
Measured quantity: Ki

Input: For the compound shown here, CC[C@H](C)C(=O)O[C@@]12[C@H](OC(=O)C3(C)CC3)[C@@H](C)[C@@]3(O)[C@H]([C@@H]1C2(C)C)[C@@H]1O[C@]1(CO)[C@@H](O)[C@]1(O)C(=O)C(C)=C[C@H]13 , give the reported Ki.
Output: 2.5 nM

Input: Again, but for CC=C(C)C(=O)OC1C(C)C2(O)C(C3OC3(CO)CC3(O)C(=O)C(C)=CC32)C2C(C)(C)C12OC(=O)C(C)CC (stereo not drawn)
Output: 7.9 nM

Input: What about C/C=C(\C)C(=O)O[C@@H]1[C@@H](C)[C@@]2(O)[C@H]([C@@H]3C(C)(C)[C@]13OC(=O)[C@@H](C)CC)[C@@H]1O[C@]1(CO)[C@@H](O)[C@]1(O)C(=O)C(C)=C[C@H]12 [EBC-46, Tigilanol tiglate] ?
Output: 1.4 nM

Input: Next compound: C/C=C(\C)C(=O)O[C@@H]1[C@@H](C)[C@]2(O)[C@@H]3C=C(C)[C@H](OC(=O)c4ccccc4)[C@@]3(O)[C@H](O)C(CO)=C[C@H]2[C@@H]2C(C)(C)[C@]12OC(=O)[C@@H](C)CC
Output: 1.5 nM

Input: Another: C/C=C(\C)C(=O)O[C@@H]1[C@@H](C)[C@@]2(O)[C@H]([C@@H]3C(C)(C)[C@]13OC(=O)C1CCC1)[C@@H]1O[C@]1(CO)[C@@H](O)[C@]1(O)C(=O)C(C)=C[C@H]12
Output: 2 nM

Input: // query: CC[C@H](C)C(=O)O[C@@]12[C@H](OC(C)(C)C)[C@@H](C)[C@@]3(O)[C@H]([C@@H]1C2(C)C)[C@@H]1O[C@]1(CO)[C@@H](O)[C@]1(O)C(=O)C(C)=C[C@H]13
Output: 1.5 nM

Input: Okay, and C/C=C(\C)C(=O)O[C@@H]1[C@@H](C)[C@@]2(O)[C@@H](C=C(CO)C[C@]3(O)C(=O)C(C)=C[C@@H]23)[C@@H]2C(C)(C)[C@]12OC(=O)[C@@H](C)CC ?
Output: 0.12 nM

Input: Same again, this time with CC=C(C)C(=O)OC1C(C)C2(O)C(C3OC3(COC)C(O)C3(O)C(=O)C(C)=CC32)C2C(C)(C)C12OC(=O)C(C)CC (stereo not drawn)
Output: 400 nM

Input: Item: C/C=C(\C)C(=O)O[C@@H]1[C@@H](C)[C@@]2(O)[C@H]([C@@H]3C(C)(C)[C@]13OC(=O)c1ccccc1)[C@@H]1O[C@]1(CO)[C@@H](O)[C@]1(O)C(=O)C(C)=C[C@H]12
Output: 5.1 nM

---

- System tested: PKC-β-I (Homo sapiens, UniProt P05771)
- Construct: purchased Invitrogen
- Experiment summary: Cell-free PKC competition binding assay against 3H-PDBu
- Condition info: Fig. 7A; PKC-β over PKC-δ
Measured quantity: PKC-β selectivity

Input: Returns the measured PKC-β selectivity for the input molecule. Input: C/C=C(\C)C(=O)O[C@@H]1[C@@H](C)[C@@]2(O)[C@H]([C@@H]3C(C)(C)[C@]13OC(=O)C1CCC1)[C@@H]1O[C@]1(CO)[C@@H](O)[C@]1(O)C(=O)C(C)=C[C@H]12 [SUW406]
Output: 3.8

Input: Ok, now C/C=C(\C)C(=O)O[C@@H]1[C@@H](C)[C@]2(O)[C@@H]3C=C(C)[C@H](OC(=O)c4ccccc4)[C@@]3(O)[C@H](O)C(CO)=C[C@H]2[C@@H]2C(C)(C)[C@]12OC(=O)[C@@H](C)CC [SUW422]
Output: 2.1

Input: Do the same for CC[C@H](C)C(=O)O[C@@]12[C@H](OC(=O)C3(C)CC3)[C@@H](C)[C@@]3(O)[C@H]([C@@H]1C2(C)C)[C@@H]1O[C@]1(CO)[C@@H](O)[C@]1(O)C(=O)C(C)=C[C@H]13 [SUW413] please
Output: 3.9

Input: And CC[C@H](C)C(=O)O[C@@]12[C@H](OC(=O)N3CCCC3)[C@@H](C)[C@@]3(O)[C@H]([C@@H]1C2(C)C)[C@@H]1O[C@]1(CO)[C@@H](O)[C@]1(O)C(=O)C(C)=C[C@H]13 [SUW424] ?
Output: 6.1

Input: Thanks! And C/C=C(\C)C(=O)O[C@@H]1[C@@H](C)[C@]2(O)[C@@H]3C=C(C)[C@H](OC(=O)C=C(C)C)[C@@]3(O)[C@H](O)C(CO)=C[C@H]2[C@@H]2C(C)(C)[C@]12OC(=O)[C@@H](C)CC [SUW425] ?
Output: 1.8

---

- Tested on: NF-κB pathway
- Experiment summary: NF-κB activation assay, A549 cells with SEAP reporter
- Format: cell-based, Human
- Condition info: 50 nM; 24 hours after dosing; A549 cells
- Text: As a high-throughput method of screening compounds for their ability to get into cells and activate immunological pathways related to HIV latency reversal ([46], [70]), we conducted an NF-κB reporter assay using A549 cells stably integrated with a secreted embryonic alkaline phosphatase reporter under the control of a promoter fused to five NF-κB binding sites (Fig. 7B) ([48], [70], [71]). […]
Measured quantity: NF-κB activation (optical density, 630 nm)

Input: Item C/C=C(\C)C(=O)O[C@@H]1[C@@H](C)[C@@]2(O)[C@H]([C@@H]3C(C)(C)[C@]13OC(=O)N1CCCC1)[C@@H]1O[C@]1(CO)[C@@H](O)[C@]1(O)C(=O)C(C)=C[C@H]12 has what recorded NF-κB activation (optical density, 630 nm)?
Output: 0.30 optical density, 630 nm

Input: Try this compound next: C/C=C(\C)C(=O)O[C@@H]1[C@@H](C)[C@@]2(O)[C@H]([C@@H]3C(C)(C)[C@]13OC(=O)[C@H](C)CC)[C@@H]1O[C@]1(CO)[C@@H](O)[C@]1(O)C(=O)C(C)=C[C@H]12
Output: 0.42 optical density, 630 nm

Input: C/C=C(\C)C(=O)O[C@@H]1[C@@H](C)[C@@]2(O)[C@@H](C=C(CO)C[C@]3(O)C(=O)C(C)=C[C@@H]23)[C@@H]2C(C)(C)[C@]12OC(=O)[C@@H](C)CC , same question.
Output: 0.71 optical density, 630 nm

Input: Here is the next compound: C/C=C(\C)C(=O)O[C@@H]1[C@@H](C)[C@]2(O)[C@@H]3C=C(C)C(=O)[C@@]3(O)[C@H](O)C(CO)=C[C@H]2[C@@H]2C(C)(C)[C@]12OC(=O)[C@@H](C)CC
Output: 0.41 optical density, 630 nm

Input: Continue with CC[C@H](C)C(=O)O[C@@]12[C@H](OC(C)(C)C)[C@@H](C)[C@@]3(O)[C@H]([C@@H]1C2(C)C)[C@@H]1O[C@]1(CO)[C@@H](O)[C@]1(O)C(=O)C(C)=C[C@H]13
Output: 0.30 optical density, 630 nm

Input: Repeat with CC=C(C)C(=O)OC1C(C)C2(O)C(C3OC3(CO)CC3(O)C(=O)C(C)=CC32)C2C(C)(C)C12OC(=O)C(C)CC (stereo not shown)
Output: 0.39 optical density, 630 nm

Input: Similarly, C/C=C(\C)C(=O)O[C@@H]1[C@@H](C)[C@]2(O)[C@@H]3C=C(C)[C@H](OC(=O)C=C(C)C)[C@@]3(O)[C@H](O)C(CO)=C[C@H]2[C@@H]2C(C)(C)[C@]12OC(=O)[C@@H](C)CC ?
Output: 0.34 optical density, 630 nm

Input: Follow-up entry: CC=C(C)C(=O)OC1C(C)C2(O)C(C3OC3(COC(=O)OCc3ccc(OC(=O)OC)cc3)C(O)C3(O)C(=O)C(C)=CC32)C2C(C)(C)C12OC(=O)C(C)CC (stereo not shown)
Output: 0.33 optical density, 630 nm

Input: Entry to check: CC[C@H](C)C(=O)O[C@@]12[C@H](OC(=O)N3CCCC3)[C@@H](C)[C@@]3(O)[C@H]([C@@H]1C2(C)C)[C@@H]1O[C@]1(CO)[C@@H](O)[C@]1(O)C(=O)C(C)=C[C@H]13
Output: 0.34 optical density, 630 nm

Input: Now try C/C=C(\C)C(=O)O[C@@H]1[C@@H](C)[C@@]2(O)[C@H]([C@@H]3C(C)(C)[C@]13OC(=O)Cc1cccc3ccccc13)[C@@H]1O[C@]1(CO)[C@@H](O)[C@]1(O)C(=O)C(C)=C[C@H]12 .
Output: 0.74 optical density, 630 nm
